# measuredOn: KDR (Homo sapiens, UniProt P35968)
# Sequence (P35968 20-1356): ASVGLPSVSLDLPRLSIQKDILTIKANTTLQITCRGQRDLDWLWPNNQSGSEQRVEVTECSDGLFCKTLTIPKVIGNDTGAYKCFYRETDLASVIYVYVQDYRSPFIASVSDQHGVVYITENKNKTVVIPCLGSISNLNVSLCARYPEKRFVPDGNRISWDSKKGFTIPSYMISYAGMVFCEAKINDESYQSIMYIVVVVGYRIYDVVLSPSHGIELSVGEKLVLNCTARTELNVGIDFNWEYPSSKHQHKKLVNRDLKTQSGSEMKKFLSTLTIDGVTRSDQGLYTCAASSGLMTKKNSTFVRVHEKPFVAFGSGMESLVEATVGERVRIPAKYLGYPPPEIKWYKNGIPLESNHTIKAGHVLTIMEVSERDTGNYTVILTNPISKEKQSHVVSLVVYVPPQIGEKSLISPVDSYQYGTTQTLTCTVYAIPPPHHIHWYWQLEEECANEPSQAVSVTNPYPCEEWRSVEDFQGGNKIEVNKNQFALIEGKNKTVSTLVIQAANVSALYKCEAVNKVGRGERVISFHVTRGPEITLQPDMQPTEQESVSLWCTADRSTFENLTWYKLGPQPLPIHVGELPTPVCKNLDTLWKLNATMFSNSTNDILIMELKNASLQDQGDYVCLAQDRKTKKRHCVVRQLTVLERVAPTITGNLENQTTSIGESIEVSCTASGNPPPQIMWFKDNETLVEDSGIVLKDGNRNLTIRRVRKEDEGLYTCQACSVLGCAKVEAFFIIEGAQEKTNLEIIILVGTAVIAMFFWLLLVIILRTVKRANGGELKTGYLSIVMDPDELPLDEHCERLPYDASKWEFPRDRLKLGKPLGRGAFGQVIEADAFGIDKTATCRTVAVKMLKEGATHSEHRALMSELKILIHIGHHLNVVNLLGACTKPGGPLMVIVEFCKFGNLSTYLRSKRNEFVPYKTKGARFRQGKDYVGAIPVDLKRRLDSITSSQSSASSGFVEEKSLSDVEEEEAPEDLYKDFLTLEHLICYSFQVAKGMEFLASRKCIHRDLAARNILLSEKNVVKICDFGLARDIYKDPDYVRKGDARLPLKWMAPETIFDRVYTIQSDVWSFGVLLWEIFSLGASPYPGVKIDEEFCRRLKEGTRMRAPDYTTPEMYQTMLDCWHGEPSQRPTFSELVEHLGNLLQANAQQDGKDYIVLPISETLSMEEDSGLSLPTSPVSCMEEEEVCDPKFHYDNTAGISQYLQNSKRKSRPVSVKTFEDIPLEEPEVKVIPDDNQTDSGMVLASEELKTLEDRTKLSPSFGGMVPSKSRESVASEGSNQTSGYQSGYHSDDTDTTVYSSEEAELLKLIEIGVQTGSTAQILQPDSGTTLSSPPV
Structures can show the parent of a compound that is named as a salt.
IC50 listing for selected compounds.
valueKind: IC50

1) Nc1nc(N[C@H](CO)c2ccccc2)cc(-c2cc(-c3ccc(O)cc3)ccc2O)n1	< 1 µM
2) Nc1nc(N[C@@H](CO)c2ccccc2)cc(-c2cc(-c3ccc(O)cc3)ccc2O)n1	< 1 µM
3) Nc1nc(Nc2ccc(Cl)cc2)cc(-c2cc(-c3ccc(O)cc3)ccc2O)n1	< 1 µM
4) Nc1cc(-c2ccc(O)c(-c3ccnc(N)n3)c2)ccn1	< 1 µM
5) NC(=O)N/N=C/c1cc(-c2ccc(O)cc2)ccc1O [Example 22, hydrochloride]	1 to 20 µM
6) Nc1nc(-c2ccc(CO)cc2)cc(-c2cc(-c3ccc(O)cc3)ccc2O)n1	< 1 µM
7) COc1cccc(CNc2cc(-c3cc(-c4ccc(O)cc4)ccc3O)nc(N)n2)c1	< 1 µM
8) COc1cccc(Nc2cc(-c3cc(-c4ccc(O)cc4)ccc3O)nc(N)n2)c1	< 1 µM
9) Nc1nc(-c2ccc([N+](=O)[O-])cc2)cc(-c2cc(-c3ccc(O)cc3)ccc2O)n1	1 to 20 µM
10) Nc1nc(-c2ccsc2)cc(-c2cc(-c3ccc(O)cc3)ccc2O)n1	1 to 20 µM
11) COc1ccc(CNc2cc(-c3cc(-c4ccc(O)cc4)ccc3O)nc(N)n2)cc1	< 1 µM
12) Nc1nccc(-c2cc(-c3ccc(O)cc3)ccc2O)n1	< 1 µM
13) Nc1nc(N[C@H](CO)Cc2ccccc2)cc(-c2cc(-c3ccc(O)cc3)ccc2O)n1	1 to 20 µM
14) CN1CCN(c2cc(-c3cc(-c4ccc(O)cc4)ccc3O)nc(N)n2)CC1	1 to 20 µM
15) NC(=S)N/N=C/c1cc(-c2ccc(O)c(O)c2)ccc1O	< 1 µM
16) Nc1nc(-c2cc(-c3ccc(O)cc3)ccc2O)cs1	1 to 20 µM
17) Nc1nc(NCCc2ccccn2)cc(-c2cc(-c3ccc(O)cc3)ccc2O)n1	< 1 µM
18) Nc1nc(-c2cc(-c3ccc(O)cc3)ccc2O)cc(N2CCOCC2)n1	1 to 20 µM
19) Nc1nc(-c2cc(-c3ccc(O)cc3)ccc2O)cc(N2CCC[C@@H]2CO)n1	1 to 20 µM
20) Nc1cccc(-c2cc(-c3cc(-c4ccc(O)cc4)ccc3O)nc(N)n2)c1	< 1 µM
21) Nc1nc(-c2cc(-c3ccc(O)cc3)ccc2O)cc(-c2ccccc2CO)n1	< 1 µM
22) NC(=O)N/N=C/c1cc(-c2ccc(O)c(F)c2)ccc1O [Example 24, hydrochloride]	1 to 20 µM
23) CC(C)(C)OC(=O)n1cccc1-c1ccc(O)c(-c2ccnc(N)n2)c1	1 to 20 µM
24) Nc1nccc(-c2cc(-c3ccc(C=O)o3)ccc2O)n1	< 1 µM
25) Nc1nc(Nc2cccc(Cl)c2)cc(-c2cc(-c3ccc(O)cc3)ccc2O)n1	< 1 µM
26) Nc1nc(N[C@@H](CO)Cc2ccccc2)cc(-c2cc(-c3ccc(O)cc3)ccc2O)n1	1 to 20 µM

###

# measuredOn: CDK2 complexed with cyclin A (Homo sapiens, UniProt P24941)
# experimentNotes: Cyclin dependent kinase activity assay, phosphorylation of synthetic peptide PKTPKKAKKLRRR
# assaySetup: 0.1 mM ATP, read-out: CDK 2 Activity*
Structures can show the parent of a compound that is named as a salt.
Catalogue of molecules with associated IC50
valueKind: IC50

1. Nc1ncc(-c2ccc(O)c(-c3ccnc(N)n3)c2)cn1 [Example 66]	500 to 2000 nM
2. Nc1nc(Cl)cc(-c2cc(-c3ccc(O)cc3)ccc2O)n1 [Example 54]	< 500 nM
3. NC(=S)N/N=C/c1cc(-c2ccc(O)cc2)c(O)cc1O [Example 28]	500 to 2000 nM
4. NC(=S)N/N=C/c1cc(-c2ccc([N+](=O)[O-])cc2)ccc1O [Example 11]	> 5000 nM
5. NC(=S)N/N=C/c1cc(-c2ccc(C(=O)O)cc2)ccc1O [Example 19]	> 5000 nM
6. NC(=O)N/N=C/c1cc(-c2cccc(C(=O)O)c2)ccc1O [Example 18, hydrochloride]	500 to 2000 nM
7. COc1cccc(-c2ccc(O)c(/C=N/NC(N)=S)c2)c1 [Example 6]	2000 to 5000 nM
8. Nc1nc(NCC(O)CO)cc(-c2cc(-c3ccc(O)cc3)ccc2O)n1 (stereo not drawn) [Example 56]	< 500 nM
9. Nc1ccc(-c2cc(-c3cc(-c4ccc(O)cc4)ccc3O)nc(N)n2)cc1 [Example 90]	< 500 nM
